Cited source for all entries: patent EP0782989A1

Tested on: PTH enhanced bone
Test: Inhibitory effect on bone absorption (calcium liberation from PTH enhanced cultured calvaria)
Type: cell-based, newborn dd mouse
Settings: Mus musculus; calvaria culture with PTH 1 x 10^-8M, 96 hours, total calcium in the culture; test compound 3 x 10^-6M, 1 x 10^-5M, 3 x 10^-5M
Where a name gives a salt, the structure may show the parent alone.
OBSERVATION_TYPE: IC50 (µM)

[A] CC(C)NC(=O)c1c(C(c2ccccc2)c2ccc(O)cc2)c2ccccc2n1CCN(C)C (centres unmarked) [Compound 119, hydrochloride]
[B] CN(C)CCn1c(C(=O)NC2CCCCCC2)c(C(c2ccccc2)c2ccccc2)c2ccccc21
## Task // which entry reports the smaller IC50, A or B ? Which one? Tell me its label.
## Result A

[a] CC(C)NC(=O)c1c(C(c2ccccc2)c2ccccc2)c2ccccc2n1CCN(C)C
[b] CN(C)CCn1c(C(=O)N2CCCCC2)c(C(c2ccccc2)c2ccccc2)c2ccccc21
[c] CN(C)CCn1c(C(=O)NCCCN2CCOCC2)c(C(c2ccccc2)c2ccccc2)c2ccccc21
## Task Put the molecules in ascending order of IC50. The response must list the labels following the requested ordering.
## Result c, b, a

----------
Test system: PTH enhanced bone
Assay: Inhibitory effect on bone absorption (calcium liberation from PTH enhanced cultured calvaria)
Type: cell-based, newborn dd mouse
Details: Mus musculus; calvaria culture with PTH 1 x 10^-8M, 96 hours, total calcium in the culture; test compound 3 x 10^-6M, 1 x 10^-5M, 3 x 10^-5M
Where a name gives a salt, the structure may show the parent alone.
OBSERVATION_TYPE: IC50 (µM)

COMPOUND	UNIT_ABBREVIATION	IC50
CN(C)CCn1c(C(=O)NCCCN2CCCC2=O)c(C(c2ccccc2)c2ccccc2)c2ccccc21 [Compound 21]	µM	14.3
CN(C)CCn1c(C(=O)N2CCN(c3ccccc3)CC2)c(C(c2ccccc2)c2ccccc2)c2ccccc21 [Compound 14]	µM	10.9
CN(C)CCn1c(C(=O)N2CCN(Cc3ccccc3)CC2)c(C(c2ccccc2)c2ccccc2)c2ccccc21 [Compound 15]	µM	14.3
CCCc1ccc(NC(=O)c2c(C(c3ccc(Cl)cc3)c3ccc(Cl)cc3)c3ccccc3n2CCN(C)C)cc1 [Compound 97, hydrochloride]	µM	14.3
CNC(=O)c1c(C(c2ccccc2)c2ccccc2)c2ccccc2n1CCN(C)C [Compound 56, hydrochloride]	µM	13

[P] CCCc1ccc(NC(=O)c2c(C(c3ccccc3)c3ccc(O)cc3)c3ccccc3n2CCN(C)C)cc1 (stereo not shown) [Compound 120, hydrochloride]
[Q] CCOC(=O)c1c(C(c2ccccc2)c2ccccc2)c2ccccc2n1CCCN(C)C [Compound 64]
## Task // which entry reports the smaller IC50, P or Q ? Which one? Tell me its label.
## Result P

----------
Tested on: PTH enhanced bone
Assay: Inhibitory effect on bone absorption (calcium liberation from PTH enhanced cultured calvaria)
Format: cell-based, newborn dd mouse
Conditions: Mus musculus; calvaria culture with PTH 1 x 10^-8M, 96 hours, total calcium in the culture; test compound 3 x 10^-6M, 1 x 10^-5M, 3 x 10^-5M
Where a name gives a salt, the structure may show the parent alone.
OBSERVATION_TYPE: IC50 (µM)

COMPOUND	UNIT_ABBREVIATION	REPORTED_RESULT
O=C(NCCN1CCCCC1)c1c(C(c2ccccc2)c2ccccc2)c2ccccc2n1CCN1CCCC1 [Compound 62, hydrochloride]	µM	18.1
CN(C)CCn1c(C(=O)N2CCOCC2)c(C(c2ccccc2)c2ccccc2)c2ccccc21	µM	11.2
CN(C)CCn1c(C(=O)NCCCn2ccnc2)c(C(c2ccccc2)c2ccccc2)c2ccccc21	µM	13.7
